system: wild type NL4-3 virus (HIV-1) in HeLa-p4 cells; assay: HeLa-p4 single-cycle HIV-1 infectivity, beta-galactosidase CPRG test; assay type: cell-based; settings: Human immunodeficiency virus 1, NL43, HeLaP4; 100 μM; 48 hours after infection; control = NL4-3 virus alone; read-out: Hela-p4 CPRG 100 μM
# activity at 100 µM values compiled below
# include the unit after the value

# count of solved cases: 5
COMPOUND | activity at 100 µM
CS(=O)(=O)c1ccc(CCN2C[C@H](N)C[C@H](N)C2)cc1 | 168%
CCc1ccc(C(=O)NC(CCCCN)C(=O)N2C[C@H](N)C[C@H](N)C2)cc1 (stereo partly drawn) | 219%
CC(O)c1ccc(C(=O)NC(CCCCN)C(=O)N2C[C@H](N)C[C@H](N)C2)cc1 (stereo partly drawn) | 236%
Cc1ccccc1CCN1C[C@H](N)C[C@H](N)C1 | 113%
CC(C)(C)OC(=O)N[C@@H]1C[C@H](NC(=O)OC(C)(C)C)CN(Cc2ccccc2)C1 | 79%

Exercise: Return reported activity at 100 µM; argument: COC(=O)[C@H](Cc1ccccc1)N1C[C@H](N)C[C@H](N)C1
Key: 147%

Exercise: Now consider N[C@@H]1C[C@H](N)CN(Cc2ccco2)C1 .
Key: 125%

Exercise: What would you report for COc1cccc(CCN2C[C@@H](N)C[C@@H](NS(C)(=O)=O)C2)c1 (racemic) ?
Key: 205%

Exercise: One more compound: CC(C)(C)OC(=O)N[C@@H]1CNC[C@H](NC(=O)OC(C)(C)C)C1
Key: 200%

Exercise: Next compound: N[C@@H]1C[C@H](N)CN(C2Cc3ccccc3C2)C1
Key: 131%

Exercise: Same again, this time with N[C@@H]1C[C@H](N)CN(c2ccccc2)C1
Key: 103%

Exercise: Same thing, different compound: COC(=O)N[C@@H]1C[C@H](NC(=O)OC)CN(CCc2cccc(OC)c2)C1
Key: 186%

Exercise: Now consider N[C@@H]1C[C@H](N)CN(CCCc2ccccc2)C1 .
Key: 147%

Exercise: Now this one: COc1cc(CN2C[C@H](N)C[C@H](N)C2)cc(OC)c1
Key: 133%

Exercise: Quick one: Cc1cccc(CCN2C[C@H](N)C[C@H](N)C2)c1
Key: 103%

Exercise: Another compound to look at: COc1ccc2[nH]cc(CCN3C[C@H](N)C[C@H](N)C3)c2c1
Key: 75%

Exercise: Queued: N[C@@H]1C[C@H](N)CN(c2ccc3c(c2)OCO3)C1
Key: 104%

Exercise: Now this one: N[C@@H]1C[C@H](N)CN(c2ccc(NC(=O)c3ccccc3)cc2)C1
Key: 165%

Value source: patent US20170183306A1
